// data source = paper PMC6892751

- test_system: angiotensin I-converting enzyme (ACE) (Oryctolagus cuniculus)
- Sequence (P12822 34-1310): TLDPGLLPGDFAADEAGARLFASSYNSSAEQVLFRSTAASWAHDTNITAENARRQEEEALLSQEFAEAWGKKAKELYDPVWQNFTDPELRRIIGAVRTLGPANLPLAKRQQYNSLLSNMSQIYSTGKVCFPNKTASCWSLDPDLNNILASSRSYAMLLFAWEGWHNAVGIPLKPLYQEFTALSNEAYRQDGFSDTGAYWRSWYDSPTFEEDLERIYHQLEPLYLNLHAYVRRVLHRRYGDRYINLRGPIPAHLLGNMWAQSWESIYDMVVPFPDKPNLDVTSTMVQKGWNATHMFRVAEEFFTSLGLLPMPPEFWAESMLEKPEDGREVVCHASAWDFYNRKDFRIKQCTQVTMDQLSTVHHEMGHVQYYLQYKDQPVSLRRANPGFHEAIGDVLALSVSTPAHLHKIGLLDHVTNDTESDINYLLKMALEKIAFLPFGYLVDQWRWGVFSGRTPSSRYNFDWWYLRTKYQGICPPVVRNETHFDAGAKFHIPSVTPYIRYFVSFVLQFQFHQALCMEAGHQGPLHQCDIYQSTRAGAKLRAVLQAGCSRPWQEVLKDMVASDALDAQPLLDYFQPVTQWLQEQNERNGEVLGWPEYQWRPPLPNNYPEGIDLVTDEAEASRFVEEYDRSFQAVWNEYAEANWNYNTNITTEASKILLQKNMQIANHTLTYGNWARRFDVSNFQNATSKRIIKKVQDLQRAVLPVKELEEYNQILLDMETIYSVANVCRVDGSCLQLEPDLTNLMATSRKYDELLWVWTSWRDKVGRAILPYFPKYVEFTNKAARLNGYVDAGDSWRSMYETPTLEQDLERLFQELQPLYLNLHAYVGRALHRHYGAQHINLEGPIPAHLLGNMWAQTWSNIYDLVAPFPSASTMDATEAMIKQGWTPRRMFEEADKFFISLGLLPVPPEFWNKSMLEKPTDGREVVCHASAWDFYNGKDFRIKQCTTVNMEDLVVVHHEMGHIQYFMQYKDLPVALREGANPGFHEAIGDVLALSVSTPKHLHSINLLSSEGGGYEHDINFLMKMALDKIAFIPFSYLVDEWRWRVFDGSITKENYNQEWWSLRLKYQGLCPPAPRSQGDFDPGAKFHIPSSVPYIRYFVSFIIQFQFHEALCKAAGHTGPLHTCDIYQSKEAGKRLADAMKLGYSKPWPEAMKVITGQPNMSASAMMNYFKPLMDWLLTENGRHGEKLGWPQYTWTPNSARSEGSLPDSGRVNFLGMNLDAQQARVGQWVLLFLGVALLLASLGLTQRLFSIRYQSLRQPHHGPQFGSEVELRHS
- assay_overview: ACE-inhibitory activity determination by HPLC (hippuric acid from Hip-His-Leu)
- Assay type: biochemical
- measurement_setup: HPLC of hippuric acid, Hip-His-Leu 5 mM, sodium borate buffer 50 mM pH 8.1, ACE 0.1 U/mL, 37°C 60 min, mean ± SD, triplicate, read-out: IC50 of ACE inhibition
Where no end group is shown, it is not given here.
Kindly supply the reported pIC50 values for the records listed here.
Give bare numbers, as −log10 of the molar value.

Reference set (3 entries):
[[record]]
substance = "LDHVPGGAR [Leu-Asp-His-Val-Pro-Gly-Gly-Ala-Arg]"
property_label = "pIC50"
assay_result = 3.70

[[record]]
substance = "KPAGDF [Lys-Pro-Ala-Gly-Asp-Phe]"
property_label = "pIC50"
assay_result = 4.11

[[record]]
substance = "KKAAMAM [Lys-Lys-Ala-Ala-Met-Ala-Met]"
property_label = "pIC50"
assay_result = 3.72


Please examine the following record next.
Please report pIC50 for the following substance: KAALSGM [Lys-Ala-Ala-Leu-Ser-Gly-Met]
3.96
